pIC50: −log10 of the molar value.
// molecules with reported pIC50 on FBXL10 (Homo sapiens (Human), UniProt Q8NHM5), multi-publication

These recorded examples may help you get a feel for the data.
CC(C)c1ccc(S(=O)(=O)N2C[C@H](C3CC3)N=C2N2CCN(C3CCC3)CC2)cc1    10.33
Fc1ccc(-c2c(-c3cc(-c4nn[nH]n4)ccn3)ncn2CC(F)(F)F)cc1    ≥ 7.00
Clc1[nH]nnc1-c1ccnc(-c2cn(CCc3cccc4ccccc34)cn2)c1    ≥ 7.00
O=C(O)c1ccnc(CN2CCC2)c1    ≤ 6.00

Now look at this entry.
q: Bench note: what pIC50 did Cc1cccc(CN(C)CCn2cnc(-c3cc(C(=O)O)ccn3)c2)c1 show?
a: ≥ 7.00

----------
Collected from the literature: IC50 of various molecules toward UniProt:Q8NHM5.

q: // map O=C(O)c1ccnc(-c2cn(CCNCc3ccc(F)cc3)cn2)c1 to recorded IC50 (system: UniProt:Q8NHM5)
a: ≤ 100 nM

q: Return IC50 measured with UniProt:Q8NHM5 given this molecule: CCN(CCN(C)C)C(=O)CNCc1cc(/C=N/CC(CO)Cc2ccccc2)ccn1 (centres unmarked)
a: > 2500 nM

q: Query the reported IC50 for UniProt:Q8NHM5; item: O=S(=O)(c1ccc(-c2cccc(Cl)c2)cc1)N1CCN=C1N1CCN(C2CCC2)CC1
a: 0.12 nM

q: Form field: IC50 recorded for O=C(O)c1ccnc(-n2nccc2Cc2ccccc2)c1 with UniProt:Q8NHM5 (enter value)
a: 1000 to 10000 nM

q: Provide value of IC50 for this record tested with UniProt:Q8NHM5: CC(C)C[C@H](NCc1cc(C(=O)O)ccn1)C1CCCO1 (some centres unmarked)
a: > 2500 nM

----------
Across several studies, molecules have been characterized by their pIC50 on FBXL10 (Homo sapiens (Human)); a selection follows.
pIC50: −log10 of the molar value.

Below are worked cases with known answers.
O=C(O)c1ccnc(-c2cn(CCc3cccc4ccccc34)cn2)c1    ≥ 7.00
CCN1CC[C@@H](CNCc2cc(C(=O)O)ccn2)C1=O    > 6.60
CN(C)C(=O)CNCc1cc(/C=N/CCCc2ccccc2)ccn1    < 5.60

q: Missing value: pIC50, FBXL10 (Homo sapiens (Human)), entry O=C(O)c1ccnc(CNCc2ccc3ncccc3c2)c1 . Fill in?
a: 5.60 to 6.60

q: Kindly state the measured pIC50 obtained for Fc1ccc(-c2c(-c3cc(-c4nn[nH]n4)ccn3)ncn2Cc2ccccc2Cl)cc1 with FBXL10 (Homo sapiens (Human)).
a: ≥ 7.00

q: Give recorded pIC50 with FBXL10 (Homo sapiens (Human)) for the following molecule: CCN(CCCN(C)C)C(=O)CNCc1cc(/C=N/CCO)ccn1
a: < 5.60

q: Provide value of pIC50 for this record tested with FBXL10 (Homo sapiens (Human)): Cc1nn(-c2cc(C(=O)O)ccn2)c(O)c1-c1ccccc1
a: 6.00 to 7.00

----------
Here is a set of compounds with reported IC50 for FBXL10 (Homo sapiens (Human)), compiled from the literature.

Here is how some compounds turned out for IC50.
Cn1cnc(-c2cc(C(=O)O)ccn2)c1-c1ccc(Cl)c(C(F)(F)F)c1    0.1 to 1 µM
CN(C)C(=O)c1ccc2cc(C(=O)C3CCCN(C4CCCC4)C3)ccc2c1 (centres unmarked)    0.188 µM
Cn1cnc(-c2cc(C(=O)O)ccn2)c1-c1ccc(C(F)(F)F)cc1    0.1 to 1 µM
Cc1cc(F)ccc1Cc1cc(O)n(-c2cc(C(=O)O)ccn2)n1    < 0.1 µM
Clc1ccccc1Cn1cnc(-c2cc(-c3nn[nH]n3)ccn2)c1    ≤ 0.1 µM

q: Short answer please: IC50, FBXL10 (Homo sapiens (Human)), entry COc1ccccc1CCn1cnc(-c2cc(C(=O)O)ccn2)c1
a: ≤ 0.1 µM

q: Give FBXL10 (Homo sapiens (Human)) IC50 for CCN1CCN(C2=NCCN2S(=O)(=O)c2cnn(CC)c2C)CC1
a: 0.0114 µM

q: Form entry - test system: FBXL10 (Homo sapiens (Human)); read-out: IC50; compound: CN(CCn1cnc(-c2cc(C(=O)NC#N)ccn2)c1)CC1CC1
a: > 10 µM

----------
Below are pIC50 measurements against FBXL10 (Homo sapiens (Human)) drawn from the literature.
pIC50: −log10 of the molar value.

Worked examples, 4 molecules total:
N#Cc1[nH]nnc1-c1ccnc(-c2cn(Cc3ccccc3Cl)cn2)c1    ≥ 7.00
CC(c1ccccc1)c1cc(O)n(-c2cc(-c3nnn[nH]3)ccn2)n1 (stereo not drawn)    > 7.00
Cn1cnc(-c2cc(-c3c[nH]nn3)ccn2)c1-c1ccc(F)cc1    ≥ 7.00
N#Cc1[nH]nnc1-c1ccnc(-c2cn(Cc3cccc(Cl)c3Cl)cn2)c1    ≥ 7.00

We next turn to a different molecule, shown below.
q: For CCN1CCN(C2=NCCN2S(=O)(=O)c2ccc(OC(F)(F)F)cc2)CC1 , what is its reported pIC50?
a: 8.78

----------
pIC50: −log10 of the molar value.
// note: pIC50 values for UniProt Q8NHM5 were reported in different studies

Fc1ccc(-c2c(-c3cc(-c4nn[nH]n4)ccn3)ncn2CCc2ccccc2Cl)cc1    ≥ 7.00

q: Request - read-out pIC50 | tested on UniProt Q8NHM5 | molecule COc1ccccc1-c1ccc(S(=O)(=O)N2CCN=C2N2CCN(C3CCC3)CC2)cc1
a: 10.30

q: Under UniProt Q8NHM5: pIC50 value of Cn1cnc(-c2cc(C(=O)O)ccn2)c1-c1ccc(Cl)cc1 ?
a: ≥ 7.00

q: # get_value(readout= pIC50, system= UniProt Q8NHM5) for CC(C)(C)c1nc2ccccn2c1CNCc1cc(C(=O)O)ccn1
a: 5.60 to 6.60

q: Form entry - test system: UniProt Q8NHM5; read-out: pIC50; molecule: FC(F)(F)COc1ccccc1CCn1cnc(-c2cc(-c3c[nH]nn3)ccn2)c1
a: ≥ 7.00

----------
pIC50: −log10 of the molar value.
Below are pIC50 measurements against FBXL10 (Homo sapiens (Human), UniProt Q8NHM5) drawn from the literature.

Examples with answers:
O=C(O)c1ccnc(-c2cn(CCc3cccc(Cl)c3)cn2)c1    ≥ 7.00
O=C(O)c1ccnc(-c2cn(CCc3ccccc3Cl)cn2)c1    ≥ 7.00
Cn1ncc2ccc(COc3ccnn3-c3cc(C(=O)O)ccn3)cc21    6.00 to 7.00
CCN(CC)CCCCNCc1cc(CN)ccn1    < 5.60

q: Item O=C(O)c1ccnc(-n2nccc2O)c1 with FBXL10 (Homo sapiens (Human), UniProt Q8NHM5) - pIC50?
a: 6.00 to 7.00

q: Can you look up pIC50 on FBXL10 (Homo sapiens (Human), UniProt Q8NHM5) for CCN(CC)CCCCN(Cc1cc(CNC(=O)C(F)(F)F)ccn1)C(=O)C(F)(F)F ?
a: < 5.60

----------
Across several publications, the following IC50 results were reported for FBXL10 (Homo sapiens (Human), UniProt Q8NHM5).

Here are 10 compounds together with their reported answers.
CN(CC(=O)N1CCCCC1)Cc1cc(C=O)ccn1    > 2500 nM
Cc1ccc(-c2ccc(S(=O)(=O)N3CCN=C3N3CCN(C4CCC4)CC3)cc2)cc1    0.145 nM
CC(C)c1ccc(S(=O)(=O)N2C[C@@H](C)N=C2N2CCN(C3CCC3)CC2)cc1    0.054 nM
CCN(CC)CCCCNCc1cc(CNC(=O)C(=O)O)ccn1    > 2500 nM
Cn1cnc(-c2cc(-c3nn[nH]n3)ccn2)c1    ≤ 100 nM
Oc1cc(Cc2ccccc2Cl)nn1-c1cc(-c2nnn[nH]2)ccn1    < 100 nM
Cn1cnc(-c2cc(C(=O)O)ccn2)c1Br    100 to 1000 nM
CCN(CC)CCCCNCc1cc(/C=N/CC(O)Cc2ccccc2)ccn1 (centres unmarked)    > 2500 nM
O=C(O)c1ccnc(-c2cn(CC3CCCO3)cn2)c1 (centres unmarked)    ≤ 100 nM
O=S(=O)(c1ccc(-c2cccnc2)cc1)N1CCN=C1N1CCN(C2CCC2)CC1    0.151 nM

Then there is this compound:
q: Recorded IC50 for O=C(c1ccc2c(OCc3ccccc3)cccc2c1)C1CCCN(CC2CC2)C1 (centres unmarked) , please?
a: 90.9 nM

----------
Field pIC50: reported value for FBXL10 (Homo sapiens (Human), UniProt Q8NHM5); entries drawn from several documents.
pIC50: −log10 of the molar value.

Study these solved cases before continuing.
COc1cc(-c2c(-c3cc(C(=O)O)ccn3)ncn2C)ccc1Cl    ≥ 7.00
Cn1cnc(-c2cc(-c3nn[nH]n3)ccn2)c1-c1ccc(F)c(C(=O)NCc2ccccc2)c1    ≥ 7.00
CCN1CCN(C2=NCCN2S(=O)(=O)c2ccc3ccccc3c2)CC1    9.00
CN(CCn1cnc(-c2cc(C(=O)O)ccn2)c1)Cc1cccc(F)c1    ≥ 7.00
Fc1cnccc1-c1nn[nH]c1C(F)(F)F    6.00 to 7.00
CC(C)CN(CC(=O)N1CCCCC1)Cc1cc(C(=O)O)ccn1    6.00 to 7.00

Could you now consider this next compound?
q: FBXL10 (Homo sapiens (Human), UniProt Q8NHM5) / pIC50 / CC(NCc1nccs1)c1cc(C(=O)O)ccn1 (stereo not shown) : value?
a: 5.60 to 6.60
